Quick list: Potency (cAMP, transient hRXFP1 in HEK293) per entry.
STUDY SYSTEM: T1, human RXFP1 (human, UniProt Q9HBX9 1-757)
T1 sequence (looked up): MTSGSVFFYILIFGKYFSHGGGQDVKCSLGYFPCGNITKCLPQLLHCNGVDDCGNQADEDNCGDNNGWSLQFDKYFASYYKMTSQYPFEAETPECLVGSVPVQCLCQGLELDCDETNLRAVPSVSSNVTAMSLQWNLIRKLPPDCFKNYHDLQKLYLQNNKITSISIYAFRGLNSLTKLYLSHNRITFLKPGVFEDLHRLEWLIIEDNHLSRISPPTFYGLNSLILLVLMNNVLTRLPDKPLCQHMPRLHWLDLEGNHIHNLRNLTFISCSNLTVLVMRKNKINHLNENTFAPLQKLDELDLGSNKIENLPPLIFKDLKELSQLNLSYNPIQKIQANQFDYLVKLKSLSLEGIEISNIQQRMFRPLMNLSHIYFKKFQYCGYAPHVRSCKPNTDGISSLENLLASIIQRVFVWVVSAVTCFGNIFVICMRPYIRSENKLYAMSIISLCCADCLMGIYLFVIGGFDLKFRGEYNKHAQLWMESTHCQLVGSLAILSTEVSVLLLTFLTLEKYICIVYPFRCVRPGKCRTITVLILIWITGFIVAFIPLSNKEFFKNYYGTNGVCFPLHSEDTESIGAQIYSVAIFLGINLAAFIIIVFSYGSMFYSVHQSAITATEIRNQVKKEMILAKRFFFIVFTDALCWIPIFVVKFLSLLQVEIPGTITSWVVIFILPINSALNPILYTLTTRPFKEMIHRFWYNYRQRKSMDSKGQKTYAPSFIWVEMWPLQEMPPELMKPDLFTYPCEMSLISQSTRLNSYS
PROTOCOL NOTES: cell-based or functional assay
Give your result in nM as a bare value.

{"BINDER": "SEQ ID NO: 112 (Fc fusion) DKTHTCPPCPAPEAAGGPSVFLFPPKPKDTLMISRTPEVTCVVVDVSHEDPEVKFNWYVDGVEVHNAKTKPREEQYNSTYRVVSVLTVLHQDWLNGKEYKCKVSNKALAAPIEKTISKAKGQPREPQVYTLPPSRDELTKNQVSLTCLVKGFYPSDIAVEWESNGQPENNYKTTPPVLDSDGSFFLYSKLTVDKSRWQQGNVFSCSVLHEALHSHYTQKSLSLSPGEGGSDSWQEEVIKLCGRELVRAQIAICGQSTASDAAGADANAGARQLYSALANKCCHVGCTKQSLAQFC", "UNITS LABEL": "nM", "REPORTED RESULT": 24.8}

Moving on to the next binder.
Q: For SEQ ID NO: 317 (Fc fusion) DKTHTCPPCPAPEAAGGPSVFLFPPKPKDTLMISRTPEVTCVVVDVSHEDPEVKFNWYVDGVEVHNAKTKPREEQYNSTYRVVSVLTVLHQDWLNGKEYKCKVSNKALAAPIEKTISKAKGQPREPQVYTLPPSRDELTKNQVSLTCLVKGFYPSDIAVEWESNGQPENNYKTTPPVLDSDGSFFLYSKLTVDKSRWQQGNVFSCSVLHEALHSHYTQKSLSLSPGGGSDSWQEEVIKLCGRELVRAQIAICGKSTGGGEGGGEGGGEGRQLYSALANKCCHVGCTKRSLAQFC , what is its reported Potency (cAMP, transient hRXFP1 in HEK293)?
A: 8
